- tested_on: PDE11A (Homo sapiens, UniProt Q9HCR9)
- Sequence (Q9HCR9 whole entry, species assumed): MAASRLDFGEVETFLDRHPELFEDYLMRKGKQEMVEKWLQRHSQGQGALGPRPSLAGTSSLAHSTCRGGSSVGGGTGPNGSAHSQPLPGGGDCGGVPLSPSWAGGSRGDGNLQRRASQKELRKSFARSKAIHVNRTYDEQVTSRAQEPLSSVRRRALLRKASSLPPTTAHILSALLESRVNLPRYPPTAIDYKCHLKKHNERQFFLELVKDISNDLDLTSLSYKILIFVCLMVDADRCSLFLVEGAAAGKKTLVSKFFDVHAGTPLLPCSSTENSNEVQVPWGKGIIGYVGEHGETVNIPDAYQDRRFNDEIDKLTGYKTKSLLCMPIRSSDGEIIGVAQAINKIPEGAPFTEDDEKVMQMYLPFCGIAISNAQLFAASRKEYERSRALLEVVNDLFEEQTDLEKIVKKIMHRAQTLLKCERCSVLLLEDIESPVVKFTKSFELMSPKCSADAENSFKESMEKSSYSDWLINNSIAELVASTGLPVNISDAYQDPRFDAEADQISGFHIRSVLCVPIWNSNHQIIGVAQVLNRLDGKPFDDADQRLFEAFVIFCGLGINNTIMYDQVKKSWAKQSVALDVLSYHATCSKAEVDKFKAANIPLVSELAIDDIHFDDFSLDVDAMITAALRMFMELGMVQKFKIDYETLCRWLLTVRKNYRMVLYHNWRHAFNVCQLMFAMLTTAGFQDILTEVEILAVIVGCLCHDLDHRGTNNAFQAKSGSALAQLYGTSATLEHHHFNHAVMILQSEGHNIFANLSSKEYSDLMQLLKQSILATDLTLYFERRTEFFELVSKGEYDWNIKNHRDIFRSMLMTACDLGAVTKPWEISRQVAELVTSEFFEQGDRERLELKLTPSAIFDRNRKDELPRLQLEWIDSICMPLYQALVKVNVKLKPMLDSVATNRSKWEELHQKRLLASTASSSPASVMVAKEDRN
- test_summary: PDE selectivity array, PDE11A with cGMP and cAMP as substrates
- measurement_setup: IC50 PDE11A cAMP, substrate cAMP; 10 concentrations, double replicates
Parameter IC50: see the listing below.
measure: IC50 (µM)

smiles_record=CCN1C(=O)[C@@H]2Cc3c([nH]c4ccccc34)[C@@H](c3ccc(Br)s3)N2C1=O measure=IC50 reported_measurement=11.3
smiles_record=CCCCN1C(=O)[C@H]2Cc3c([nH]c4ccccc34)[C@@H](c3ccc(Br)s3)N2C1=O measure=IC50 reported_measurement=4

* * *

pIC50: −log10 of the molar value.
What follows is a record of pIC50 for PDE1A (Homo sapiens).
measure: pIC50

molecule=CCN1C(=O)[C@@H]2Cc3c([nH]c4ccccc34)[C@@H](c3ccc(Br)s3)N2C1=O measure=pIC50 reported_measurement="< 4.30"
molecule=CCCCN1C(=O)[C@H]2Cc3c([nH]c4ccccc34)[C@@H](c3ccc(Br)s3)N2C1=O measure=pIC50 reported_measurement="< 4.30"
molecule="CN1CC(=O)N2[C@H](c3ccc4c(c3)OCO4)c3[nH]c4ccccc4c3C[C@@H]2C1=O [Tadalafil, tadalafil, reference compound]" measure=pIC50 reported_measurement="< 4.30"
